Test system: C. elegans
Assay: microbe, parasite or virus in culture
Details: Caenorhabditis elegans, 0 h, read-out: Percentage of motility inhibition 0 h
readout-label: inhibition at 110 µM (%)
Give bare numbers, in %.

Examples with answers:
| compound | unit-text | inhibition at 110 µM |
| --- | --- | --- |
| COc1cc(C=O)cc(OC)c1O [Syringaldehyde] | % | 4 |
| COc1cc2c(cc1OC)[C@@H](Cc1ccc(Oc3cc(C[C@@H]4c5cc(OC)c(OC)cc5CCN4C)ccc3O)cc1)N(C)CC2 [Dauricine] | % | 2 |
| NCCCC[C@H](N)C(=O)O [L-Lysine] | % | 19 |
| C=C(C)[C@H](CC=C(C)C)Cc1c(O)cc(O)c2c1O[C@H](c1ccc(O)cc1O)CC2=O [Sophoraflavanone G] | % | 55 |
| Nc1ncnc2[nH]cnc12 [Adenine] | % | 0 |

Hi team, please reply with inhibition at 110 µM for each item in this list.
1. CC1(C)CC[C@]2(C(=O)O)CC[C@]3(C)C(=CC[C@@H]4[C@@]5(C)CC[C@H](O)C(C)(C)[C@@H]5CC[C@]43C)[C@@H]2C1 [Oleanolic Acid]
2. CC(C)OC(=O)[C@H](C)N[P@](=O)(CO[C@H](C)Cn1cnc2c(N)ncnc21)Oc1ccccc1 [GS‐7340]
3. C/C=C1/C[C@@H](C)[C@@](C)(O)C(=O)OCC2=CCN3CC[C@@H](OC1=O)[C@@H]23 [Senecionine]

// result
1. 4
2. 11
3. 0

----------
System: C. elegans
Assay: microbe, parasite or virus in culture
Conditions: Caenorhabditis elegans, 0 h, read-out: Percentage of motility inhibition 0 h, Table S2, C. elegans SS assay, 110 μM, 0 h, averages of 4 data points
I'd be grateful if you could share measured inhibition at 110 µM for these entries.
Numbers only, in %.

| molecule | unit-text | inhibition at 110 µM |
| --- | --- | --- |
| Nc1cc(C(Cl)=C(Cl)Cl)c(S(N)(=O)=O)cc1S(N)(=O)=O | % | 12 |
| CCCCC/C=C/C(=O)CCc1ccc(O)c(OC)c1 | % | 0 |

Hi team, please reply with inhibition at 110 µM for each item in this list.
1. CC12CC3OC4O[C@H](CO)[C@@H](O)[C@H](O)[C@H]4OC34CC1C4(COC(=O)c1ccccc1)C(=O)O2 (stereo partly drawn)
2. CC(C)=CCc1cc([C@@H]2CC(=O)c3ccc(O)c(CC=C(C)C)c3O2)ccc1O

// result
[0, 11]

Hi team, please reply with inhibition at 110 µM for each item in this list.
1. Cc1cc2c(C(C)C)c(O)c(O)c(C=O)c2c(O)c1-c1c(C)cc2c(C(C)C)c(O)c(O)c(C=O)c2c1O
2. COc1ccc(-c2coc3cc(O)c(OC)c(O)c3c2=O)cc1
3. Nc1ccc(S(=O)(=O)Nc2ncccn2)cc1
4. O=C(N[C@H](CO)[C@H](O)c1ccc([N+](=O)[O-])cc1)C(Cl)Cl
5. CNCc1ccccc1

// result
[0, 0, 14, 6, 0]

----------
I'd be grateful if you could share measured Percentage of motility inhibition 0 h for these entries.
Test system: C. elegans
Settings: Table S2, C. elegans SS assay, 110 μM, 0 h, averages of 4 data points
One number for each entry, in %.

Examples with answers:
| compound | experimental-result |
| --- | --- |
| CC1(C)CC[C@]2(C)CC[C@]3(C)C(=CC[C@@H]4[C@@]5(C)CC[C@@H](O)[C@](C)(C(=O)O)[C@@H]5CC[C@]43C)[C@@H]2C1 | 34 |
| O=C1C[C@@H](c2ccc(O)cc2)Oc2cc(O)ccc21 | 44 |
| O=C(O)[C@@H]1C[C@@H](O)CN1 | 11 |

--- query ---
// query For the compound CCn1cc(C(=O)O)c(=O)c2cc(F)c(N3CCN(C)CC3)cc21.CS(=O)(=O)O [Pefloxacin (mesylate)] , give its reported Percentage of motility inhibition 0 h.
// result 9

----------
Tested on: C. elegans
Conditions: Table S2, C. elegans SS assay, 110 μM, 0 h, averages of 4 data points
readout-label: Percentage of motility inhibition 0 h (%)
Numbers only, in %.

Hi team, please reply with Percentage of motility inhibition 0 h for each item in this list.
1. COc1ccc([C@@H]2CC(=O)c3c(O)cc(O[C@@H]4O[C@H](CO[C@@H]5O[C@@H](C)[C@H](O)[C@@H](O)[C@H]5O)[C@@H](O)[C@H](O)[C@H]4O)cc3O2)cc1 [Didymin]
2. C[C@@H]1CC[C@@]2(NC1)O[C@H]1C[C@H]3[C@@H]4CC=C5C[C@@H](O[C@@H]6O[C@H](CO)[C@@H](O[C@@H]7O[C@@H](C)[C@H](O)[C@@H](O)[C@H]7O)[C@H](O)[C@H]6O)CC[C@]5(C)[C@H]4CC[C@]3(C)[C@H]1[C@@H]2C [Khasianine]
3. O.O.O=C([O-])CC(O)(CC(=O)[O-])C(=O)[O-].[Na+].[Na+].[Na+] [Sodium citrate (dihydrate)]
4. Clc1ccc(COC(Cn2ccnc2)c2ccc(Cl)cc2Cl)cc1.O=[N+]([O-])O (centres unmarked) [Econazole (nitrate)]
5. CC=C1[C@H](O[C@@H]2O[C@H](CO)[C@@H](O)[C@H](O)[C@H]2O)OC=C(C(=O)OC)[C@H]1CC(=O)OC[C@H]1O[C@@H](OCCc2ccc(O)cc2)[C@H](O)[C@@H](O)[C@@H]1O (stereo in doubt) [Specnuezhenide]

// result
1
19
32
35
1

----------
Tested on: C. elegans
Assay: microbe, parasite or virus in culture
Conditions: Caenorhabditis elegans, 24 h, read-out: Inhibition (%) 110 μM (24 h), C. elegans L4 motility, 110 μM, 24 h, mean ± SD of four experiments
I'd be grateful if you could share measured inhibition at 110 µM for these entries.
Numbers only, in %.

Examples with answers:
| compound | inhibition at 110 µM, % |
| --- | --- |
| c1ccc(C2CN3CCSC3=N2)cc1 (stereo not shown) [Tetramisole, reference compound] | 82 |
| c1ccc([C@H]2CN3CCSC3=N2)cc1 [Levamisole, reference compound] | 61 |
| CN1CCCN=C1/C=C/c1cccs1 [Pyrantel pamoate, reference compound] | 18 |
| CC1(C)CCC[C@]2(C)[C@@H](C=O)C(C=O)=CC[C@@H]12 | 93 |
| Nc1ccc(S(=O)(=O)Nc2cnc3ccccc3n2)cc1 [Sulfaquinoxaline, reference compound] | 67 |

Hi team, please reply with inhibition at 110 µM for each item in this list.
1. CCCCCCCCN=c1ccn(CCCCCCCCCCn2ccc(=NCCCCCCCC)cc2)cc1 [Octenidine, reference compound]
2. Oc1ccc(/C=C/c2cc(O)cc(O)c2)cc1
3. CCc1c(Cl)c(O)c(Cl)c(O)c1C(=O)O[C@H]1[C@H](O)[C@H](OC)[C@H](OC/C2=C\C=C\C[C@H](O)/C(C)=C/[C@H](CC)[C@@H](O[C@@H]3OC(C)(C)[C@@H](OC(=O)C(C)C)[C@H](O)[C@@H]3O)/C(C)=C/C(C)=C/C[C@@H]([C@@H](C)O)OC2=O)O[C@@H]1C [Fidaxomicin, reference compound]
4. N=C(N/N=C/c1ccc(Cl)cc1)N/N=C/c1ccc(Cl)cc1 [Robenidine, reference compound]
5. CC(C)NCC(O)COc1cccc2ccccc12 (stereo not shown) [Propranolol, reference compound]

// result
[96, 7, 89, 81, 35]

----------
System: C. elegans
Conditions: Table S2, C. elegans SS assay, 110 μM, 0 h, averages of 4 data points
readout-label: Percentage of motility inhibition 0 h (%)
Give bare numbers, in %.

Examples with answers:
| compound | Percentage of motility inhibition 0 h (%) |
| --- | --- |
| C[C@H]1CC[C@@H]2N(C1)C[C@H]1[C@@H]3C[C@H]4[C@@H](C[C@@H](O)[C@H]5C[C@@H](O)CC[C@@]54C)[C@@H]3CC[C@@H]1[C@]2(C)O [Isoverticine] | 0 |
| C[C@@]12C=Cc3occc3[C@H]1CC[C@@]13C[C@@H](CC[C@H]12)[C@@](O)(CO)C3 [Kahweol] | 11 |

// query State measured Percentage of motility inhibition 0 h of the compound Cn1nnnc1SCC1=C(C(=O)[O-])N2C(=O)[C@@H](NC(=O)[C@H](OC=O)c3ccccc3)[C@H]2SC1.[Na+] [Cefamandole (nafate)] with C. elegans.
// result 0

----------
I'd be grateful if you could share measured Percentage of motility inhibition 0 h for these entries.
Tested on: C. elegans
Settings: Table S2, C. elegans SS assay, 110 μM, 0 h, averages of 4 data points
Give bare numbers, in %.

Examples with answers:
| compound | unit-text | Percentage of motility inhibition 0 h |
| --- | --- | --- |
| CC[C@H]1OC(=O)C[C@@H](O)[C@H](C)[C@@H](O[C@@H]2O[C@H](C)[C@@H](O[C@H]3C[C@@](C)(O)[C@@H](O)[C@H](C)O3)[C@H](N(C)C)[C@H]2O)[C@@H](CC=O)C[C@@H](C)C(=O)/C=C/C(C)=C/[C@@H]1CO[C@@H]1O[C@H](C)[C@@H](O)[C@@H](OC)[C@H]1OC.O=C(O)C(O)C(O)C(=O)O [Tylosin (tartr ate)] | % | 0 |
| C[C@@H](CO[C@@H]1O[C@H](CO)[C@@H](O)[C@H](O)[C@H]1O)[C@@H]1CC[C@@]2(CC[C@]3(C)[C@H](CC[C@@H]4[C@@]5(C)CC[C@H](O[C@@H]6O[C@H](CO)[C@@H](O)[C@H](O)[C@H]6O[C@@H]6O[C@H](CO)[C@@H](O)[C@H](O)[C@H]6O)[C@@](C)(CO[C@@H]6O[C@H](CO)[C@@H](O)[C@H](O)[C@H]6O)[C@@H]5CC[C@]43C)[C@H]2O)CO1 [Hosenkoside K] | % | 10 |
| COC[C@]12CN(C)C3[C@@H]4[C@H](OC)[C@H]1[C@@]3([C@@H](OC)C[C@H]2O)[C@@H]1C[C@@]2(O)[C@H](OC(=O)c3ccccc3)[C@@H]1[C@]4(O)[C@@H](O)[C@@H]2OC | % | 1 |
| O=c1cc(-c2ccccc2)oc2cc(O)cc(O[C@@H]3O[C@H](CO)[C@@H](O)[C@H](O)[C@H]3O)c12 | % | 0 |
| COc1ccc(-c2coc3c([C@@H]4O[C@H](CO)[C@@H](O)[C@H](O)[C@H]4O)c(O)ccc3c2=O)cc1 | % | 14 |

Hi team, please reply with Percentage of motility inhibition 0 h for each item in this list.
1. C[C@@H]1CC[C@]2(C(=O)O[C@@H]3O[C@H](CO)[C@@H](O)[C@H](O)[C@H]3O)CC[C@]3(C)C(=CC[C@@H]4[C@@]5(C)CC[C@H](O)[C@](C)(C(=O)O)[C@@H]5CC[C@]43C)[C@@H]2[C@]1(C)O
2. COC(=O)[C@@]1(C)CC[C@]2(C(=O)O)CC[C@]3(C)C(=CC[C@@H]4[C@@]5(C)C[C@H](O)[C@H](O[C@@H]6OC[C@@H](O[C@@H]7O[C@H](CO)[C@@H](O)[C@H](O)[C@H]7O)[C@H](O)[C@H]6O)[C@@](C)(CO)[C@@H]5CC[C@]43C)[C@@H]2C1 [Esculentoside A]
3. O=C(O)[C@H]1O[C@@H](Oc2cc(O)c3c(=O)cc(-c4ccc(O)c(O)c4)oc3c2)[C@H](O)[C@@H](O)[C@@H]1O [Luteolin 7‐O‐glucuronide]
4. C[C@H](CCC(=O)NCC(=O)[O-])[C@H]1CC[C@H]2[C@@H]3[C@H](O)C[C@@H]4C[C@H](O)CC[C@]4(C)[C@H]3C[C@H](O)[C@]12C.[Na+] [Glycocholic acid (sodium)]
5. C[C@@H]1NC(=O)N[C@@H]1CCCCCC(=O)O
6. CCC(C)C1NC(=O)C(C)NC1=O (centres unmarked)
7. CC1(C)CC[C@]2(C(=O)O)CC[C@]3(C)C(=CC[C@@H]4[C@@]5(C)CC[C@H](O[C@@H]6OC[C@H](O)[C@H](O)[C@H]6O[C@@H]6O[C@H](CO)[C@@H](O)[C@H](O)[C@H]6O)[C@@](C)(CO)[C@@H]5CC[C@]43C)[C@@H]2C1 [Cauloside C]

// result
1. 0
2. 17
3. 22
4. 0
5. 18
6. 16
7. 0

Hi team, please reply with Percentage of motility inhibition 0 h for each item in this list.
1. COc1cccc(C[n+]2cn(Cc3ccccc3)c(C)c2C)c1.[Cl-] [Lepidiline C]
2. CC(=O)OC[C@@]12CC[C@@H](C)[C@](C)(CCC3=CC(=O)OC3)[C@H]1C[C@H](O)C=C2CO
3. CC(/C=C/C=C(\C)C(=O)O)=C\C=C\C=C(C)\C=C\C=C(/C)C(=O)O.CNC[C@H](O)[C@@H](O)[C@H](O)[C@H](O)CO.CNC[C@H](O)[C@@H](O)[C@H](O)[C@H](O)CO
4. CCCCCCCC/C=C\CCCCCCCC(=O)[O-].[Na+] [Sodium oleate]
5. Oc1cc(O)c2c(c1)O[C@@]1(c3ccc(O)c(O)c3)Oc3cc(O)c4c(c3[C@@H]2[C@H]1O)O[C@H](c1ccc(O)c(O)c1)[C@H](O)C4
6. Cc1ncccc1O [3‐Hydroxy‐2‐methylpyridine]

// result
0
0
6
0
6
15

Hi team, please reply with Percentage of motility inhibition 0 h for each item in this list.
1. Cc1c(O)c(C)c2occ(Cc3ccc4c(c3)OCO4)c(=O)c2c1O
2. CC(C)=CCC[C@](C)(O)[C@H]1CC[C@]2(C)[C@@H]1[C@H](O)C[C@@H]1[C@@]3(C)CC[C@H](O)C(C)(C)[C@@H]3[C@@H](O[C@@H]3O[C@H](CO)[C@@H](O)[C@H](O)[C@H]3O[C@@H]3OC[C@@H](O)[C@H](O)[C@H]3O)C[C@]12C [Notoginsenoside R2]

// result
[0, 19]
